Values compiled from paper PMC4670726.

# Experimental Target: ERK2 (as used in the fluorescence polarization titrations) (human, UniProt P28482 1-360)
# Protocol Notes: FP
Ends that are not written are not given here.
Measured Metric: Kd (µM)

Take a look at these entries with their results.
# Binder, Measured Metric, Measurement
measured = [
    ("KKIQPKLSLT (not fully specified) [JAZF1 peptide]", "Kd", 15),
    ("KEKSGSLKLRIP (not fully specified) [CCNT2 peptide]", "Kd", 14.4),
]

[a] RHRDKRLSLNLP (not fully specified) [GAB3 peptide]
[b] KKKSKPLNLKIH (not fully specified) [KSR2 peptide]
INPUT: Between these two entries, a and b , state which has the higher Kd. // caller expects the label of the chosen entry
OUTPUT: a
